Give measured Kd for each item. Keep answers brief.
- assayed.system: His-tagged canine IL-31 (interleukin 31) recombinant protein (canine)
- assay.method.text: BLI (Gator), biotinylated antibody on streptavidin probe, canine IL-31 as analyte
One number for each entry, in nM.

>>> result_value("6465-H2K3-canIgGB (antibody, V domains shown) VH: EVQLVESGGDLVKPGGSLRLSCVASGYSFTNYYLYWVRQAPGKGLQWLGELNPRNGGTNLNAKFKTRFTISVDKAKNTAYLQMNSLRAEDTAVYYCTRGGTTVVVRDVMDFWGQGTLVTVSS VL: DIVMTQTPLSLSVSPGEPASISCRASESVDSYGNSFMHWYRQKPGQSPQLLIYRASNLESGVPDRFSGSGSGTDFTLRISRVEADDAGVYYCQQSNEDPYTFGQGTKLEIKR")
4.99
>>> result_value("6465-H2K1-canIgGB (antibody, V domains shown) VH: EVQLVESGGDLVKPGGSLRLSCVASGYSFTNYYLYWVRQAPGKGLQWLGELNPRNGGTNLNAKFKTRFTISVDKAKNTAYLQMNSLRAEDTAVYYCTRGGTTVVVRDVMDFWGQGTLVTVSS VL: EIVLTQTPLSLAVTPGELATISCRASESVDSYGNSFMHWYLQKPGQTPRLLIYRASNLESGVSDRFSGSGSRTDFTLKISRVEAEDVGVYYCQQSNEDPYTFGQGTKLEIKR")
3.37
>>> result_value("7475-H2K3-canIgGB (antibody, V domains shown) VH: EVQLVESGGDLVKPGGSLRLSCVASGFTFSSYAMSWIRQAPGKGLQWVAYISNGGDYIFYADTVKGRFTISRDNAKNTLYLQMNSLRAEDTAVYYCTRRGHYNTSSYWYFDVWGQGTLVTVSS VL: EIVMTQSPASLSLSQEEKVTITCKASENVGTYVSWYQQKPGQAPKLLIYGASNRYTGVPSRFSGSGSGTDFSFTISSLEPEDVAVYYCGQSYSYPPTFGAGTKVELKR")
4.67
>>> result_value("B2-H3K3-canIgGB (antibody, V domains shown) VH: EVQLVESGGDLVKPGGSLRLSCVASGFTFSDAWMDWVRQAPGKGLQWVAEIRSRAESHATYYAESVKGRFTISRDDAKNTVYLQMNSLRAEDTAVYYCTPASTMITTGWFAYWGQGTLVTVSS VL: EIVMTQTPLSLSVSPGELATISCRASQNISVYLHWYQQKPGQAPKVLIKYVSQSISGVPSRFSGSGSGSDFTLTISSVEAEDVGVYYCQNGHSFPYTFGQGTKLEIKR")
3.16
>>> result_value("B2-H1K1-canIgGB (antibody, V domains shown) VH: EVQLVESGGDLVKPGGSLRLSCVASGFTFSDAWMDWVRQAPGKGLQWLAEIRSRAESHATYYAESVKGRFTISRDDAKNTVYLQMNSLRAEDTAVYYCTPASTMITTGWFAYWGQGTLVTVSS VL: EIVMTQTPLSLAVTPGELATISCRASQNISVYLHWYLQKPGQTPRVLIKYVSQSISGVSDRFSGSGSGSDFTLKISRVEAEDVGVYYCQNGHSFPYTFGQGTKLEIKR")
17.2
>>> result_value("7475-H1K3-canIgGB (antibody, V domains shown) VH: EVQLVESGGDLVKPGGSLRLSCVASGFTFSSYAMSWVRQAPGKGLQWVAYISNGGDYIFYADTVKGRFTISRDNARNTLYLQMNSLRSEDTAVYYCTRRGHYNTSSYWYFDVWGQGTLVTVSS VL: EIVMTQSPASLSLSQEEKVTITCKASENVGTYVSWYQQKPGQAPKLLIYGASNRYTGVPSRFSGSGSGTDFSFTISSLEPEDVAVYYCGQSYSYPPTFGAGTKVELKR")
6.51
>>> result_value("7475-H1K2-canIgGB (antibody, V domains shown) VH: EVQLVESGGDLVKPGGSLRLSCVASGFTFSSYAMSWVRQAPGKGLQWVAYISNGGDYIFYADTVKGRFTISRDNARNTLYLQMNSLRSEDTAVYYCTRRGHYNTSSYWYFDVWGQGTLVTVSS VL: EIVMTQSPASLSLSQEEKVTITCKASENVGTYVSWYQQKPGQAPKLLIYGASNRYTGVPSRFSGSGSATDFTLTISSVEPEDVAVYYCGQSYSYPPTFGAGTKVELKR")
6.37
>>> result_value("6465-H3K2-canIgGB (antibody, V domains shown) VH: EVQLVESGGDLVKPGGSLRLSCVASGYSFTNYYLYWVRQAPGKGLEWVAELNPRNGGTNLNAKFKTRFTISRDNAKNMAYLQMNSLRAEDTAVYYCTRGGTTVVVRDVMDFWGQGTLVTVSS VL: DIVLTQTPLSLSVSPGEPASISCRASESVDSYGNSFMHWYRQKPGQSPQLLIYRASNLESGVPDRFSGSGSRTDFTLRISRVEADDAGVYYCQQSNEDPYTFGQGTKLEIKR")
6.95

Note: attention shifts to another entry.
Asked: Could you please provide reported Kd for B2-mHvKv-canIgGB (antibody, V domains shown) VH: EVKLVESGGGLVQPGGSMKLSCAASGFTFSDAWMDWVRQSPERGLEWVAEIRSRAESHATYYAESVKGRFTISRDDSKGSVYLQMNSLGTEDTGIYYCTPASTMITTGWFAYWGQGTMVTVSS VL: NIVMTQSPAILSVTPGDRVSLSCRASQNISVYLHWYQQKSHDSPRVLIKYVSQSISGIPSRFSGSGSGSDFTLRINSVEPEDVGVYYCQNGHSFPYTFGGGTKLEIKR ? Thanks!
Given back: 3.04
